# ASSAY TARGET: hERG (KCNH2) (Homo sapiens)
# Sequence (Q12809 whole entry): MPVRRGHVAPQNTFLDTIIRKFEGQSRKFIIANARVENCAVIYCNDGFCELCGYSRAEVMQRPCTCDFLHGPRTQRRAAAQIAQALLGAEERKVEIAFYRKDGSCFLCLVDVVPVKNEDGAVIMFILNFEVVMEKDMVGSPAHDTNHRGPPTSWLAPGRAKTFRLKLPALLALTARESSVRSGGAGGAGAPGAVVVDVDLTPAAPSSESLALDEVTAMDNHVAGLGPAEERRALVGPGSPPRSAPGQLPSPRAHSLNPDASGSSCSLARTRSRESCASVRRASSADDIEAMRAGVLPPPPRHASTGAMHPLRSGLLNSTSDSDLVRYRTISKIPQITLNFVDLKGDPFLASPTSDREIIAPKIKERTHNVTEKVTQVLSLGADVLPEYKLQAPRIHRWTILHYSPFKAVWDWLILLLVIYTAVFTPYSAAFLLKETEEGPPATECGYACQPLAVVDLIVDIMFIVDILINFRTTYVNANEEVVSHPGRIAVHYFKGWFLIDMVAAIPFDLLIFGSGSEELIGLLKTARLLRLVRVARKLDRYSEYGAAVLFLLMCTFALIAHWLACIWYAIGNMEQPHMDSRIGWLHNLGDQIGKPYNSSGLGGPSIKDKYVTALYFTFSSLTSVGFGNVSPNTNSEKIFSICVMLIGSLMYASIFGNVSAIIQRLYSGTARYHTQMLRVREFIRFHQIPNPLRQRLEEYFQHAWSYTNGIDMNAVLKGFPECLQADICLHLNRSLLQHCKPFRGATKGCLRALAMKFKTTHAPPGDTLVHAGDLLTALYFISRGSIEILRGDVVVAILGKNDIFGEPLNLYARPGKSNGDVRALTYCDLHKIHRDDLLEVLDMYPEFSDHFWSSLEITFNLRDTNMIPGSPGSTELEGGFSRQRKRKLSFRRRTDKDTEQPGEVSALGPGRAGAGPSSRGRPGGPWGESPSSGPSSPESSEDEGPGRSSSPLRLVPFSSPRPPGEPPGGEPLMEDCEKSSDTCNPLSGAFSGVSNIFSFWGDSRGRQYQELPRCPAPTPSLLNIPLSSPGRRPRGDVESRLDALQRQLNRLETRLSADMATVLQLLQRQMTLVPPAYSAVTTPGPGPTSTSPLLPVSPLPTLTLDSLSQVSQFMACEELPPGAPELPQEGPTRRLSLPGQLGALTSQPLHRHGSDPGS
# ASSAY COMMENT: Inhibition of human ERG expressed in HEK cells at 300 uM
# Format: cell-based, HEK293
# ASSAY CONTEXT: HEK cells expressing human ERG
QUANTITY NAME: inhibition at 300 µM (%)

>  <CHEMICAL SMILES>
CC[C@H]1OC(=O)[C@H](C)[C@@H](O[C@H]2C[C@@](C)(OC)[C@@H](O)[C@H](C)O2)[C@H](C)[C@@H](O[C@@H]2O[C@H](C)C[C@H](N(C)C(C)C)[C@H]2O)[C@](C)(O)C[C@@H](C)[C@H](OCC(=O)NC2CCC2)[C@H](C)[C@@H](O)[C@]1(C)O

>  <NUMERIC READOUT>
100

$$$$
>  <CHEMICAL SMILES>
CCNC(=O)CO[C@@H]1[C@H](C)[C@@H](O)[C@](C)(O)[C@@H](CC)OC(=O)[C@H](C)[C@@H](O[C@H]2C[C@@](C)(OC)[C@@H](O)[C@H](C)O2)[C@H](C)[C@@H](O[C@@H]2O[C@H](C)C[C@H](N(C)C(C)C)[C@H]2O)[C@](C)(O)C[C@H]1C

>  <NUMERIC READOUT>
75

$$$$
>  <CHEMICAL SMILES>
CC[C@H]1OC(=O)[C@H](C)[C@@H](O[C@H]2C[C@@](C)(OC)[C@@H](O)[C@H](C)O2)[C@H](C)[C@@H](O[C@@H]2O[C@H](C)C[C@H](N(C)C(C)C)[C@H]2O)[C@](C)(O)C[C@@H](C)[C@H](OCC(=O)N(C)C)[C@H](C)[C@@H](O)[C@]1(C)O

>  <NUMERIC READOUT>
29

$$$$
>  <CHEMICAL SMILES>
CC[C@H]1OC(=O)[C@H](C)[C@@H](O[C@H]2C[C@@](C)(OC)[C@@H](O)[C@H](C)O2)[C@H](C)[C@@H](O[C@@H]2O[C@H](C)C[C@H](N(C)C(C)C)[C@H]2O)[C@](C)(O)C[C@@H](C)[C@H](OCc2cccc(C(=O)NC)c2)[C@H](C)[C@@H](O)[C@]1(C)O

>  <NUMERIC READOUT>
100

$$$$

====

Recorded EC50 by entry
# ASSAY TARGET: Motilin receptor (Oryctolagus cuniculus, UniProt A5A4K8)
# Sequence (A5A4K8 whole entry): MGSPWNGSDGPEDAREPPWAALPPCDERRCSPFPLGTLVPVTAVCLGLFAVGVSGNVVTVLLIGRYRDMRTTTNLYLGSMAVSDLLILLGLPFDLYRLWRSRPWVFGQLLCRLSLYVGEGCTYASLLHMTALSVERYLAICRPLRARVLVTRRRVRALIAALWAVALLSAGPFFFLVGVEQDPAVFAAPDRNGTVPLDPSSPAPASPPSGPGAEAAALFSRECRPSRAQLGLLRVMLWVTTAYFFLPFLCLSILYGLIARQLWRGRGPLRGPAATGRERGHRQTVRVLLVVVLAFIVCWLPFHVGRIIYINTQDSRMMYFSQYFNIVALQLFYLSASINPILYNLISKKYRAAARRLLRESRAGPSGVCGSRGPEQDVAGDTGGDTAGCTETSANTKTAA
# ASSAY COMMENT: Agonist activity at motilin receptor in rabbit smooth muscle assessed as maximal possible tissue contraction

>  <CHEMICAL SMILES>
CC[C@H]1OC(=O)[C@H](C)[C@@H](O[C@H]2C[C@@](C)(OC)[C@@H](O)[C@H](C)O2)[C@H](C)[C@@H](O[C@@H]2O[C@H](C)C[C@H](N(C)C(C)C)[C@H]2O)[C@](C)(O)C[C@@H](C)[C@H](OCC(=O)NC2CCOCC2)[C@H](C)[C@@H](O)[C@]1(C)O

>  <EC50, nM>
120

$$$$
>  <CHEMICAL SMILES>
CC[C@H]1OC(=O)[C@H](C)[C@@H](O[C@H]2C[C@@](C)(OC)[C@@H](O)[C@H](C)O2)[C@H](C)[C@@H](O[C@@H]2O[C@H](C)C[C@H](N(C)C(C)C)[C@H]2O)[C@](C)(O)C[C@@H](C)[C@H](OCc2cccc(C(=O)NC)c2)[C@H](C)[C@@H](O)[C@]1(C)O

>  <EC50, nM>
2100

$$$$

Origin of measurements: ChEMBL document CHEMBL1154611
